Measurement Target: AgNbp2
Assay Summary: SPOT peptide array binding signal intensity (averaged, normalized) (arbitrary units (background-subtracted, floor 0; scale differs between SH3 domains)); higher = stronger binding of the SH3 domain to the peptide
Attribute Measured: SPOT peptide array binding signal intensity
Please give only the number in your answer, with no unit.

Record excerpt, results attached:
> print(dat)
            binder  measured.number
1  KKAPPPVVKPKPRNF               45
2  LKHGWKPLRPIKLIS               41
3  AHFQPQRTAPKPPIS             3970
4  IKTRSVPKIPSIESV             2650
5  MARRRLPDRPPNGIG              410

Below: the item to evaluate.
Task: State its SPOT peptide array binding signal intensity: "KIRRSSLMIPNPQQF"
Output: 15
